System: human GSK3β (Homo sapiens, UniProt P49841) | Read-out: IC50
Sequence (P49841 whole entry): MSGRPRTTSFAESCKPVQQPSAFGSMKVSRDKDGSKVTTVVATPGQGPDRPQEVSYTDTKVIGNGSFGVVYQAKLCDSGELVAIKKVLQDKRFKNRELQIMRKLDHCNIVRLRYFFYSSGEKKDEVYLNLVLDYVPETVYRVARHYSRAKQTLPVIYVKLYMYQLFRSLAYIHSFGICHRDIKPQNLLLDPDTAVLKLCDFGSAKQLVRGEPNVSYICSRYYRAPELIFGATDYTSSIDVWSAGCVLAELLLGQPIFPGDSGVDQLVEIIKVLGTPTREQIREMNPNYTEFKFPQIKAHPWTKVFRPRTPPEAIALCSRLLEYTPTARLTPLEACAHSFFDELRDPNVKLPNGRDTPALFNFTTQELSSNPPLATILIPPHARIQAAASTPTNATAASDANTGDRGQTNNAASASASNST

- MOLECULE: "O=C(NCc1cccc(Br)c1)c1ccc(-c2ccnc(NCCNc3ccc([N+](=O)[O-])cn3)n2)cc1"
  STUDY TARGET: "human GSK3β (Homo sapiens, UniProt P49841)"
  RESULT: "≤ 10 µM"
- MOLECULE: "Cc1cn(-c2cnc(NCCNc3ccc([N+](=O)[O-])cn3)nc2-c2ccc(Cl)cc2Cl)cn1"
  STUDY TARGET: "human GSK3β (Homo sapiens, UniProt P49841)"
  RESULT: "≤ 1 µM"
- MOLECULE: "Cc1c[nH]c(-c2cnc(NCCNc3ccc([N+](=O)[O-])cn3)nc2-c2ccc(Cl)cc2Cl)n1"
  STUDY TARGET: "human GSK3β (Homo sapiens, UniProt P49841)"
  RESULT: "≤ 1 µM"

Query: IC50; subject: `COc1ccccc1CCNc1nccc(-c2ccc(C(N)=O)cc2)n1`
≤ 1 µM

Another molecule to look at: `Cn1ccnc1-c1cnc(NCCNc2ccc([N+](=O)[O-])cn2)nc1-c1ccc(Cl)cc1Cl`
≤ 1 µM

Repeat with `N#Cc1ccc(-c2nc(NCCNc3ccc([N+](=O)[O-])cn3)nc(-c3ccc([N+](=O)[O-])cc3)c2C(=O)O)cc1`
≤ 1 µM

Entry to check: `CCOC(=O)c1cnc(NCCNc2ccc([N+](=O)[O-])cn2)nc1-c1ccc(Cl)cc1Cl`
≤ 1 µM

Another: `COc1ccc(OC)c(CCNc2nccc(-c3ccc(C(N)=O)cc3)n2)c1`
≤ 1 µM

Repeat with `NC(=O)c1ccc(-c2ccnc(NCc3ccc(C(F)(F)F)cc3)n2)cc1`
≤ 10 µM
